System: HeLa Kyoto
Assay: solubility change mitosis vs G1/S (difference of NP-40 vs SDS log2 ratios) (log2 ratio difference); higher = more soluble in mitosis
# Lookup of reported solubility change mitosis (log2) keyed by entry
// return a plain number; no unit text

Guide cases for solubility change mitosis (log2), answers given:
>  <query-sequence>
MGKSDFLTPKAIANRIKSKGLQKLRWYCQMCQKQCRDENGFKCHCMSESHQRQLLLASENPQQFMDYFSEEFRNDFLELLRRRFGTKRVHNNIVYNEYISHREHIHMNATQWETLTDFTKWLGREGLCKVDETPKGWYIQYIDRDPETIRRQLELEKKKKQDLDDEEKTAKFIEEQVRRGLEGKEQEVPTFTELSRENDEEKVTFNLSKGACSSSGATSSKSSTLGPSALKTIGSSASVKRKESSQSSTQSKEKKKKKSALDEIMEIEEEKKRTARTDYWLQPEIIVKIITKKLGEKYHKKKAIVKEVIDKYTAVVKMIDSGDKLKLDQTHLETVIPAPGKRILVLNGGYRGNEGTLESINEKTFSATIVIETGPLKGRRVEGIQYEDISKLA [KIN]

>  <data-value>
0.174

$$$$
>  <query-sequence>
MEKTELIQKAKLAEQAERYDDMATCMKAVTEQGAELSNEERNLLSVAYKNVVGGRRSAWRVISSIEQKTDTSDKKLQLIKDYREKVESELRSICTTVLELLDKYLIANATNPESKVFYLKMKGDYFRYLAEVACGDDRKQTIDNSQGAYQEAFDISKKEMQPTHPIRLGLALNFSVFYYEILNNPELACTLAKTAFDEAIAELDTLNEDSYKDSTLIMQLLRDNLTLWTSDSAGEECDAAEGAEN [YWHAQ]

>  <data-value>
0.372

$$$$

Reported solubility change mitosis (log2) for MSIMSYNGGAVMAMKGKNCVAIAADRRFGIQAQMVTTDFQKIFPMGDRLYIGLAGLATDVQTVAQRLKFRLNLYELKEGRQIKPYTLMSMVANLLYEKRFGPYYTEPVIAGLDPKTFKPFICSLDLIGCPMVTDDFVVSGTCAEQMYGMCESLWEPNMDPDHLFETISQAMLNAVDRDAVSGMGVIVHIIEKDKITTRTLKARMD [PSMB3] was -0.241

###

Each entry below lists one item and its recorded thermal stability score value.
Tested on: HeLa Kyoto
Assay: thermal stability score vs G1/S (z-score of summed log2 fold changes over temperatures); higher = more thermally stable than in G1/S
Details: cell cycle stage: early G1 (4.5 h after nocodazole release)

Consider the worked cases shown below.
>  <query-sequence>
MSFRKVNIIILVLAVALFLLVLHHNFLSLSSLLRNEVTDSGIVGPQPIDFVPNALRHAVDGRQEEIPVVIAASEDRLGGAIAAINSIQHNTRSNVIFYIVTLNNTADHLRSWLNSDSLKSIRYKIVNFDPKLLEGKVKEDPDQGESMKPLTFARFYLPILVPSAKKAIYMDDDVIVQGDILALYNTALKPGHAAAFSEDCDSASTKVVIRGAGNQYNYIGYLDYKKERIRKLSMKASTCSFNPGVFVANLTEWKRQNITNQLEKWMKLNVEEGLYSRTLAGSITTPPLLIVFYQQHSTIDPMWNVRHLGSSAGKRYSPQFVKAAKLLHWNGHLKPWGRTASYTDVWEKWYIPDPTGKFNLIRRYTEISNIK [GLT8D1]

>  <metric>
thermal stability score

>  <data-value>
3.31

$$$$
>  <query-sequence>
MTKLAQWLWGLAILGSTWVALTTGALGLELPLSCQEVLWPLPAYLLVSAGCYALGTVGYRVATFHDCEDAARELQSQIQEARADLARRGLRF [DPM3]

>  <metric>
thermal stability score

>  <data-value>
-3.28

$$$$

Attention now turns to another entry.
Reported thermal stability score ( MSESFDCAKCNESLYGRKYIQTDSGPYCVPCYDNTFANTCAECQQLIGHDSRELFYEDRHFHEGCFRCCRCQRSLADEPFTCQDSELLCNDCYCSAFSSQCSACGETVMPGSRKLEYGGQTWHEHCFLCSGCEQPLGSRSFVPDKGAHYCVPCYENKFAPRCARCSKTLTQGGVTYRDQPWHRECLVCTGCQTPLAGQQFTSRDEDPYCVACFGELFAPKCSSCKRPIVGLGGGKYVSFEDRHWHHNCFSCARCSTSLVGQGFVPDGDQVLCQGCSQAGP [FHL3] ) = 0.504
